Let's look at some compounds and their measured pIC50.
experiment: Cytotoxicity against human DU145 cells assessed as cell viability after 48 hrs by MTT assay; format: functional, cell-based; details: DU-145, 48 h
Would you please state pIC50, meaning minus log10 of the concentration in mol/L, as a bare number?

Example compounds with recorded pIC50:
{"Compound": "CC(C)=CCC/C(C)=C/CC/C(C)=C/CC[C@@H]1[C@@]2(C)CC/C(=N\\OCc3cn(-c4ccc(F)cc4)nn3)C(C)(C)[C@@H]2CC[C@@]1(C)O", "Numeric value": 4.67}
{"Compound": "CC(C)=CCC/C(C)=C/CC/C(C)=C/CC[C@@H]1[C@@]2(C)C/C(=C\\c3ccc(OCc4cn(-c5cccc(C(F)(F)F)c5)nn4)cc3)C(=O)C(C)(C)[C@@H]2CC[C@@]1(C)O", "Numeric value": 5.03}
{"Compound": "COc1cccc(-n2cc(COc3ccc(/C=C4\\C[C@]5(C)[C@@H](CC/C=C(\\C)CC/C=C(\\C)CCC=C(C)C)[C@](C)(O)CC[C@H]5C(C)(C)C4=O)cc3)nn2)c1", "Numeric value": 4.84}
{"Compound": "CC(C)=CCC/C(C)=C/CC/C(C)=C/CC[C@@H]1[C@@]2(C)CC/C(=N\\OCc3cn(-c4ccccc4)nn3)C(C)(C)[C@@H]2CC[C@@]1(C)O", "Numeric value": 5.05}
{"Compound": "COc1cc(OC)c(-n2cc(CO/N=C3\\CC[C@]4(C)[C@@H](CC/C=C(\\C)CC/C=C(\\C)CCC=C(C)C)[C@](C)(O)CC[C@H]4C3(C)C)nn2)c(OC)c1", "Numeric value": 4.95}

Turning to the following compound.
Returns the measured pIC50 for the input compound. Input: `CC(C)=CCC/C(C)=C/CC/C(C)=C/CC[C@@H]1[C@@]2(C)CC/C(=N\OCc3cn(-c4ccncc4)nn3)C(C)(C)[C@@H]2CC[C@@]1(C)O`
4.76

----------
Let's look at some compounds and their measured IC50.
test: Cytotoxicity against human DU145 cells assessed as cell viability after 48 hrs by MTT assay; type: functional, cell-based; conditions: DU-145, 48 h
Give the quantity in µM, number only.

{"Compound": "CC(C)=CCC/C(C)=C/CC/C(C)=C/CC[C@@H]1[C@@]2(C)CC/C(=N\\OCc3cn(-c4ccc(Cl)cc4)nn3)C(C)(C)[C@@H]2CC[C@@]1(C)O", "Observable": "IC50", "Unit text": "µM", "Numeric value": 16.2}
{"Compound": "CC(C)=CCC/C(C)=C/CC/C(C)=C/CC[C@@H]1[C@@]2(C)CC/C(=N\\OCc3cn(-c4ccc(F)c(Cl)c4)nn3)C(C)(C)[C@@H]2CC[C@@]1(C)O", "Observable": "IC50", "Unit text": "µM", "Numeric value": 26.9}
{"Compound": "CC(C)=CCC/C(C)=C/CC/C(C)=C/CC[C@@H]1[C@@]2(C)C/C(=C\\c3ccc(OCc4cn(-c5ccccc5)nn4)cc3)C(=O)C(C)(C)[C@@H]2CC[C@@]1(C)O", "Observable": "IC50", "Unit text": "µM", "Numeric value": 21}
{"Compound": "COc1cccc2c1C(=O)c1c(O)c3c(c(O)c1C2=O)C[C@@](O)(C(=O)CO)C[C@@H]3O[C@H]1C[C@H](N)[C@H](O)[C@H](C)O1", "Observable": "IC50", "Unit text": "µM", "Numeric value": 1.41}
{"Compound": "CC(C)=CCC/C(C)=C/CC/C(C)=C/CC[C@@H]1[C@@]2(C)C/C(=C\\c3ccc(OCc4cn(-c5cccc(O)c5)nn4)cc3)C(=O)C(C)(C)[C@@H]2CC[C@@]1(C)O", "Observable": "IC50", "Unit text": "µM", "Numeric value": 40.6}

Turning to the following compound.
Returns the measured IC50 for the input compound. Input: `CC(C)=CCC/C(C)=C/CC/C(C)=C/CC[C@@H]1[C@@]2(C)CC/C(=N\OCc3cn(-c4ccccc4C#N)nn3)C(C)(C)[C@@H]2CC[C@@]1(C)O`
25.1
